Sourced from patent US9067922B2

Target: URAT-1 transporter (Homo sapiens (Human))
Sequence (Q96S37 other isoform, or with tags, fused parts or gaps): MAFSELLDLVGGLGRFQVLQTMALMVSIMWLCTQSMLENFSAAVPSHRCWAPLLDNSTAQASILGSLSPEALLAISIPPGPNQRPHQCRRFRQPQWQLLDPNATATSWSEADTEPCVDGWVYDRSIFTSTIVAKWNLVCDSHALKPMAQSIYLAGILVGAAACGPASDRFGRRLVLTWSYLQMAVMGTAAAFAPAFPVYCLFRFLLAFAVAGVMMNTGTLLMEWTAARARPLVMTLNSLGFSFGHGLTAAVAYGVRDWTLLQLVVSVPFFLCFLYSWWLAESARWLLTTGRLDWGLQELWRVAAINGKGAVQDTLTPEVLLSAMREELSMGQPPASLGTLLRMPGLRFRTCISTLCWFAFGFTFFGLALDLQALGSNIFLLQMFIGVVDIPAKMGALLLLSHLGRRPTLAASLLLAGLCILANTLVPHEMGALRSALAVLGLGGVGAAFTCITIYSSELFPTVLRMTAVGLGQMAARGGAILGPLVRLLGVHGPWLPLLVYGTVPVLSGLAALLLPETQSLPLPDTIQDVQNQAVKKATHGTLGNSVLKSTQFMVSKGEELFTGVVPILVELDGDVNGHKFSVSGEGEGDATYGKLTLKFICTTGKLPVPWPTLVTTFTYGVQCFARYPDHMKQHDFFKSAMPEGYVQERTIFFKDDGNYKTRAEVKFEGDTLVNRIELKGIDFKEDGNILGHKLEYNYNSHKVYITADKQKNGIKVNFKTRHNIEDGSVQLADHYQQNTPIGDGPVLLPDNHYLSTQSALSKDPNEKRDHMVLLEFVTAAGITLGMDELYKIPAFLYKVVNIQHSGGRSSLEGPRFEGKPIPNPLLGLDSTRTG
Assay: URAT-1 inhibitor activity: [14C]-uric acid uptake in CHO-URAT1(L)GFP#8 (CHO#8) cells, scintillation proximity
Format: cell-based
Conditions: inhibition of [14C]-uric acid (30 nM) uptake into CHO#8 cells; compound 0 to 10 μM; 4 parameter logistic fit
pIC50: −log10 of the molar value.
reported-metric: pIC50

{"compound": "COc1ccc(F)cc1Oc1ccc(S(=O)(=O)Nc2ccc(F)cn2)cc1C#N [Example 120]", "reported-metric": "pIC50", "endpoint-result": "< 5.00"}
{"compound": "Cc1ccnc(NS(=O)(=O)c2ccc(Oc3cccc(Cl)c3C#N)cc2)n1 [Example 220]", "reported-metric": "pIC50", "endpoint-result": "< 5.00"}
{"compound": "Cc1ccc(Oc2ccc(S(=O)(=O)Nc3ccc(F)cn3)cc2C#N)c(Cl)c1C [Example 178]", "reported-metric": "pIC50", "endpoint-result": "< 5.00"}
